TEST SYSTEM: Human tissue-type plasminogen activator (h t-PA) (Homo sapiens)
Construct: purchased Boehringer Ingelheim Actilyse
Sequence (P00750 36-562): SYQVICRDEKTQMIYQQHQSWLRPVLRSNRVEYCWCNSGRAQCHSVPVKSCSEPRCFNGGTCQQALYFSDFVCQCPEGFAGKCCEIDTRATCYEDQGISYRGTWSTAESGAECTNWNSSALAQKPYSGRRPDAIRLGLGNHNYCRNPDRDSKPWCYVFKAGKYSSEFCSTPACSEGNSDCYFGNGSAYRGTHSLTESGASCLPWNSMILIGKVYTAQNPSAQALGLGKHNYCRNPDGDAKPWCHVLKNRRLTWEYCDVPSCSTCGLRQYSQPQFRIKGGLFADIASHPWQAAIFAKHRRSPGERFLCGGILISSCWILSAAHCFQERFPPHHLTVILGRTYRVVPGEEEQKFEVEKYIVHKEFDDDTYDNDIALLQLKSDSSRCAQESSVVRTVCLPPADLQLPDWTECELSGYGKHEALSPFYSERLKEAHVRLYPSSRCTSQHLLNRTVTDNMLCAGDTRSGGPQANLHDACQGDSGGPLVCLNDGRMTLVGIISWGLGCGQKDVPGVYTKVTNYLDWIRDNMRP
EXPERIMENT SUMMARY: Inhibition of human tissue-type plasminogen activator (reference enzyme)
Assay type: biochemical
CONDITION INFO: Pefachrome tPA substrate; read-out: Ki h t-PA
Method: The equilibrium rates were used to calculate the inhibitor/enzyme dissociation constant (Ki values) by parameter fitting in accordance with the rate equation for competitive inhibition using GraFit (version 4 from Erithacus). Dissociation constants were calculated as described herein.
Structures can show the parent of a compound that is named as a salt.
PROPERTY MEASURED: Ki

1. NCc1ccc(Cl)cc1CNC(=O)[C@@H]1CCCN1C(=O)[C@@H](CCC(=O)N1CCOCC1)NS(=O)(=O)Cc1ccccc1 [Compound 2.1, TFA] | > 20 µM
2. NCc1ccc(Cl)cc1CNC(=O)[C@@H]1C[C@H](N)CN1C(=O)[C@@H](CCC(=O)N1CCOCC1)NS(=O)(=O)Cc1ccccc1 | > 15 µM
3. NCc1ccc(Cl)cc1CNC(=O)[C@@H]1CNCCN1C(=O)[C@@H](CC(=O)N1CCCCC1)NS(=O)(=O)Cc1ccccc1 | > 40 µM

// data source = patent US8497245B2
